Molecular target: T1, Human α-parvin-CHC (residues 242-372) (human, UniProt Q9NVD7 242-372)
T1 construct: α-parvin, human, C-terminal CH domain, residues 242-372; also called second CH domain of α-parvin; source: E. coli BL21, expressed as GST-fusion protein (pGex 6P1), purified as described previously (Lorenz et al., 2008)
T1 sequence (looked up): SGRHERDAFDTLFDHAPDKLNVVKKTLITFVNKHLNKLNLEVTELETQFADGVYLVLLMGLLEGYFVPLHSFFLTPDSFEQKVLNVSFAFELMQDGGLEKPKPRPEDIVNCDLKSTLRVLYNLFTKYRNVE
Experiment: fluorescence polarisation; direct anisotropy: FAT or α-parvin titrated, FITC-Ahx-labelled LD4 at 0.1 μM; 20 mM HEPES pH 7.5, 150 mM NaCl, 2 mM EDTA, 2 mM DTT, 0.005% Tween-20; room temperature
Settings: both partners purified
Where no end group is shown, it is not given here. The star is where a group is joined. FITC = O=C1OC2(c3ccc(O)cc3Oc3cc(O)ccc32)c2ccc(NC(=S)*)cc21; Ahx = NCCCCCC(=O)O
metric: pKd
# pKd is unitless: minus log10 of the molar concentration; print number only

What measured pKd goes with {FITC-Ahx}-SASSATRELDELMASLSD (paxillin, human, LD4 motif with flanking residues; also called labelled LD4; FITC-Ahx-labelled LD4; source: synthetic peptide, bought: GenScript) [paxillin LD4 peptide, FITC-Ahx-labelled] ?
4.60

Numbers sourced from paper PMC7703752.
